- SUBJECT_OF_TEST: 5-hydroxytryptamine receptor 1A (Rattus norvegicus)
- EXPERIMENTAL_DETAILS: Displacement of [3H]8-OH-DPAT from 5-HT1A receptor in rat hippocampus
- Format: tissue-based
RESULT_TYPE: pKi
Please treat pKi as minus the base-10 logarithm of the molar concentration.

Study these solved cases before continuing.
| SMILES_CODE | pKi |
| --- | --- |
| O=c1c(-c2ccccc2F)c2n(c(=O)n1CCCCN1CCC(c3c[nH]c4ccccc34)CC1)CCCC2 | 7.38 |
| COc1ccc(-c2c3n(c(=O)n(CCCCN4CCC(c5c(C)[nH]c6ccccc56)CC4)c2=O)CCCC3)cc1 | 6.82 |
| O=c1c(-c2ccccc2Cl)c2n(c(=O)n1CCCCN1CCC(c3c[nH]c4ccccc34)CC1)CCCC2 | 7.21 |

Given `Cc1ccc(-c2c3n(c(=O)n(CCCCN4CCC(c5c[nH]c6ccccc56)CC4)c2=O)CCCC3)cc1` , state its recorded pKi.
7.34

Requested read-out: pKi. Entry: `Cc1[nH]c2ccccc2c1C1CCN(CCCCn2c(=O)c(-c3ccccc3Cl)c3n(c2=O)CCCC3)CC1`
6.41

If you can, please state the reported pKi value of `COc1ccc(-c2c3n(c(=O)n(CCCCN4CCC(c5c[nH]c6ccccc56)CC4)c2=O)CCCC3)cc1` .
7.49

Which pKi value is on record for `Cc1ccc(-c2c3n(c(=O)n(CCCCN4CCC(c5c(C)[nH]c6ccccc56)CC4)c2=O)CCCC3)cc1` ?
6.55

# input compound: `COc1ccccc1-c1c2n(c(=O)n(CCCCN3CCC(c4c(C)[nH]c5ccccc45)CC3)c1=O)CCCC2` ; wanted: its pKi
6.50

###

Measured deltaT values are reported for all entries that follow.
- Test system: Mus musculus
- EXPERIMENTAL_DETAILS: Effect on hypothermia in Swiss albino mouse assessed as change in rectal body temperature at 5 mg/kg, ip after 90 mins by inducible hypothermia test
- Type: functional, organism-based
- Set-up: dose 5 mg/kg
Kindly answer with a numeric value in °C, unit omitted.

Answered cases to consult:
| SMILES_CODE | deltaT (°C) |
| --- | --- |
| O=c1c(-c2ccccc2)c2n(c(=O)n1CCCCN1CCC(c3c[nH]c4ccccc34)CC1)CCCC2 | -0.2 |
| O=c1c(-c2ccc(Cl)cc2)c2n(c(=O)n1CCCCN1CCC(c3c[nH]c4ccccc34)CC1)CCCC2 | -0.4 |
| COc1ccc(-c2c3n(c(=O)n(CCCCN4CCC(c5c[nH]c6ccccc56)CC4)c2=O)CCCC3)cc1 | -0.2 |
| Cc1ccc(-c2c3n(c(=O)n(CCCCN4CCC(c5c[nH]c6ccccc56)CC4)c2=O)CCCC3)cc1 | -0.3 |
| COc1ccccc1-c1c2n(c(=O)n(CCCCN3CCC(c4c[nH]c5ccccc45)CC3)c1=O)CCCC2 | -0.3 |
| O=c1c(-c2ccccc2F)c2n(c(=O)n1CCCCN1CCC(c3c[nH]c4ccccc34)CC1)CCCC2 | -0.5 |

# evaluate next
Any idea what deltaT was measured for `O=c1c(-c2ccccc2Cl)c2n(c(=O)n1CCCCN1CCC(c3c[nH]c4ccccc34)CC1)CCCC2` ?
-0.2

###

- SUBJECT_OF_TEST: 5-hydroxytryptamine receptor 1A (Rattus norvegicus, UniProt P19327)
- Sequence (P19327 whole entry): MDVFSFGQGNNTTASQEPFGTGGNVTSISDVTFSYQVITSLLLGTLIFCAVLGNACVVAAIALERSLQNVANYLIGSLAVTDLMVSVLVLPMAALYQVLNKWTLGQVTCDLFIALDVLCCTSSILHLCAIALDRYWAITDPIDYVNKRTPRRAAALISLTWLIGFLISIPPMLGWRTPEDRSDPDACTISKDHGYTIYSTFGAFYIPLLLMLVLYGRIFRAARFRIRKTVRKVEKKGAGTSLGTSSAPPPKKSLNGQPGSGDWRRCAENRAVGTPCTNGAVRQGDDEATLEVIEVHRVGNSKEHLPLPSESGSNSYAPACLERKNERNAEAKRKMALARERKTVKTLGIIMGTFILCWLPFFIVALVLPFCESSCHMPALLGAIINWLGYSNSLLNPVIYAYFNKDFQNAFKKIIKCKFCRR
- EXPERIMENTAL_DETAILS: Displacement of [3H]8-OH-DPAT from 5-HT1A receptor in rat hippocampus
- Format: tissue-based
RESULT_TYPE: Ki (nM)
The response must be a number in nM with no trailing unit.

Guide cases for Ki, answers given:
| SMILES_CODE | RESULT_UNITS | Ki |
| --- | --- | --- |
| Cc1[nH]c2ccccc2c1C1CCN(CCCCn2c(=O)c(-c3ccc(F)cc3)c3n(c2=O)CCCC3)CC1 | nM | 114 |
| Cc1ccccc1-c1c2n(c(=O)n(CCCCN3CCC(c4c[nH]c5ccccc45)CC3)c1=O)CCCC2 | nM | 112 |
| Cc1[nH]c2ccccc2c1C1CCN(CCCCn2c(=O)c(-c3ccccc3F)c3n(c2=O)CCCC3)CC1 | nM | 303 |

Now for the compound whose Ki we want.
Which Ki value is on record for `O=c1c(-c2ccccc2)c2n(c(=O)n1CCCCN1CCC(c3c[nH]c4ccccc34)CC1)CCCC2` ?
28.3

###

A set of compounds tested on Sodium-dependent serotonin transporter (Rattus norvegicus, UniProt P31652), with measured pKi:
Interpret pKi as the negative base-10 log of the concentration measured in mol/L.

| SMILES_CODE | pKi |
| --- | --- |
| Cc1ccc(-c2c3n(c(=O)n(CCCCN4CCC(c5c[nH]c6ccccc56)CC4)c2=O)CCCC3)cc1 | 7.37 |
| Cc1[nH]c2ccccc2c1C1CCN(CCCCn2c(=O)c(-c3ccccc3F)c3n(c2=O)CCCC3)CC1 | 5.89 |
| Cc1[nH]c2ccccc2c1C1CCN(CCCCn2c(=O)c(-c3ccc(F)cc3)c3n(c2=O)CCCC3)CC1 | 6.83 |
| O=c1c(-c2ccccc2Cl)c2n(c(=O)n1CCCCN1CCC(c3c[nH]c4ccccc34)CC1)CCCC2 | 6.83 |

Query for Sodium-dependent serotonin transporter (Rattus norvegicus, UniProt P31652): what pKi does the record show for `O=c1c(-c2ccccc2F)c2n(c(=O)n1CCCCN1CCC(c3c[nH]c4ccccc34)CC1)CCCC2` ?
7.16

Kindly state the measured pKi obtained for `Cc1[nH]c2ccccc2c1C1CCN(CCCCn2c(=O)c(-c3ccccc3Cl)c3n(c2=O)CCCC3)CC1` with Sodium-dependent serotonin transporter (Rattus norvegicus, UniProt P31652).
Sequence (P31652 whole entry): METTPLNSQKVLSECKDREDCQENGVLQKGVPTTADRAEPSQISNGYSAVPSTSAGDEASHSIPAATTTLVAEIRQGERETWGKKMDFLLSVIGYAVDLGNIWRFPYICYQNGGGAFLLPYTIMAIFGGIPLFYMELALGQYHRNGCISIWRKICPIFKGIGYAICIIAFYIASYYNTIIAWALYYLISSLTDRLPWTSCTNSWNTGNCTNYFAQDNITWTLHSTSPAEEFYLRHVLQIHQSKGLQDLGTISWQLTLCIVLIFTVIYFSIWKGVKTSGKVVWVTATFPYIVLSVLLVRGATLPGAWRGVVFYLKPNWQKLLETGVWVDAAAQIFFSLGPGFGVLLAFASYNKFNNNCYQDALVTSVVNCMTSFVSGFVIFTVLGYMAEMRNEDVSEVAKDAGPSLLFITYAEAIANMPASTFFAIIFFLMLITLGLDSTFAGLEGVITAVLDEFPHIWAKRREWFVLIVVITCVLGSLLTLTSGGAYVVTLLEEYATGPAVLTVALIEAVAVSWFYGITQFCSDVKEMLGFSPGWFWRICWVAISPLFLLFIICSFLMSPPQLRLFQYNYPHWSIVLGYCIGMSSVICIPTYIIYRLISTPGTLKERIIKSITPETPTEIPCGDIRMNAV
5.89

Fill in the recorded pKi for this compound, with Sodium-dependent serotonin transporter (Rattus norvegicus, UniProt P31652) as test system: `Cc1ccc(-c2c3n(c(=O)n(CCCCN4CCC(c5c(C)[nH]c6ccccc56)CC4)c2=O)CCCC3)cc1`
5.74

Tell me reported pKi for `O=c1c(-c2ccc(F)cc2)c2n(c(=O)n1CCCCN1CCC(c3c[nH]c4ccccc34)CC1)CCCC2` , tested with Sodium-dependent serotonin transporter (Rattus norvegicus, UniProt P31652).
7.33

Report pKi for `COc1ccc(-c2c3n(c(=O)n(CCCCN4CCC(c5c(C)[nH]c6ccccc56)CC4)c2=O)CCCC3)cc1` tested on Sodium-dependent serotonin transporter (Rattus norvegicus, UniProt P31652).
6.73

Query pKi on Sodium-dependent serotonin transporter (Rattus norvegicus, UniProt P31652) for `Cc1ccccc1-c1c2n(c(=O)n(CCCCN3CCC(c4c[nH]c5ccccc45)CC3)c1=O)CCCC2`
7.16

# value lookup — system Sodium-dependent serotonin transporter (Rattus norvegicus, UniProt P31652), readout pKi, item `O=c1c(-c2ccccc2)c2n(c(=O)n1CCCCN1CCC(c3c[nH]c4ccccc34)CC1)CCCC2`
7.09

Hello, I am looking for reported pKi with Sodium-dependent serotonin transporter (Rattus norvegicus, UniProt P31652) for `COc1ccc(-c2c3n(c(=O)n(CCCCN4CCC(c5c[nH]c6ccccc56)CC4)c2=O)CCCC3)cc1` . Could you help?
7.30

// map `COc1ccccc1-c1c2n(c(=O)n(CCCCN3CCC(c4c(C)[nH]c5ccccc45)CC3)c1=O)CCCC2` to recorded pKi (system: Sodium-dependent serotonin transporter (Rattus norvegicus, UniProt P31652))
5.89

###

- Tested on: Mus musculus
- EXPERIMENTAL_DETAILS: Effect on hypothermia in Swiss albino mouse assessed as change in rectal body temperature at 5 mg/kg, ip after 30 mins by inducible hypothermia test
- Format: functional, organism-based
- Design: dose 5 mg/kg
RESULT_TYPE: deltaT (°C)
Report only the number, with the unit °C understood.

Illustrative cases are given below, each with its answer.
| SMILES_CODE | deltaT / °C |
| --- | --- |
| COc1ccccc1-c1c2n(c(=O)n(CCCCN3CCC(c4c[nH]c5ccccc45)CC3)c1=O)CCCC2 | -0.8 |
| O=c1c(-c2ccccc2F)c2n(c(=O)n1CCCCN1CCC(c3c[nH]c4ccccc34)CC1)CCCC2 | -1.3 |
| O=c1c(-c2ccc(Cl)cc2)c2n(c(=O)n1CCCCN1CCC(c3c[nH]c4ccccc34)CC1)CCCC2 | -1 |

Please report the recorded deltaT for `O=c1c(-c2ccccc2)c2n(c(=O)n1CCCCN1CCC(c3c[nH]c4ccccc34)CC1)CCCC2` .
-0.7

###

- Test system: Mus musculus
- EXPERIMENTAL_DETAILS: Effect on hypothermia in Swiss albino mouse assessed as change in rectal body temperature at 5 mg/kg, ip after 30 mins by inducible hypothermia test
- Format: functional, organism-based
- Set-up: dose 5 mg/kg
RESULT_TYPE: deltaT (°C)
State the answer as a number, implicitly in °C.

Return reported deltaT; argument: `Cc1ccc(-c2c3n(c(=O)n(CCCCN4CCC(c5c[nH]c6ccccc56)CC4)c2=O)CCCC3)cc1`
-0.5

Fill in the blank: the reported deltaT of `COc1ccc(-c2c3n(c(=O)n(CCCCN4CCC(c5c[nH]c6ccccc56)CC4)c2=O)CCCC3)cc1` is ____.
-0.6

What does the data say about its deltaT? Entry: `O=c1c(-c2ccccc2Cl)c2n(c(=O)n1CCCCN1CCC(c3c[nH]c4ccccc34)CC1)CCCC2`
-0.5
